Reference source: patent US20090291081A1

Molecular target: T1, human IL-1α (human, UniProt P01583 113-271)
T1 construct: also called IL-1alpha; hIL-1α
T1 sequence (looked up): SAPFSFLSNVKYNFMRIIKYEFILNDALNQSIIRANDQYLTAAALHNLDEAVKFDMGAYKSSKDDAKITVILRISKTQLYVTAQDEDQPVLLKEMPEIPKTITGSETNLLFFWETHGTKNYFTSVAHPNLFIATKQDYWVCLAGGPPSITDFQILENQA
Assay: Table 62 IC50; RBA presumed
pIC50: −log10 of the molar value.
Entry flag: YES if pIC50 reaches 9; NO if it does not.

- BINDER: "ABT1-95-24 (other, VK dAb) VL: DIQMTQSPSSLSASVGDRVTITCRASQPIVRNLRWYQQKPGKAPKLLIYSSSYLEPGVPSRFSGSGSGTDFTLTISSLQPEDFATYYCCQGYRWPVTFGQGTKVEIKR"
  ASSIGNED CATEGORY: "YES"
- BINDER: "ABT1-95-76 (other, VK dAb) VL: DIQMTQSPSSLSASVGDRVTITCRASQPIVRNLRWYQQKPGKAPKLLIYSGSYLEPGVPSRFSGSGSGTDFTLTISSLQPEDFATYHCQQGYRWPVTFGQGTKVEIKR"
  ASSIGNED CATEGORY: "YES"
- BINDER: "ABT1-95-41 (other, VK dAb) VL: DIQMTQSPSSLSASVGDRVTITCRASYPIVRNLRWYQQKPGKAPKLLIYSSSYLEPGVPSRFSGSGSGTDFTLTISSLQPEDFATYHCQQGYRWPVTFGQGTKVEIKR"
  ASSIGNED CATEGORY: "YES"
- BINDER: "ABT1-95-161 (other, VK dAb) VL: DIQMTQSPSSLSASVGDRVTITCRASQPIVRNLRWYQQKPGKAPKLLIYSSSYLEPGVPSRFSGSGSGTDFTLTISSLQPEDFATYHCQQGYRWPPTFGQGTKVEIKR"
  ASSIGNED CATEGORY: "YES"
- BINDER: "ABT1-95-89 (other, VK dAb) VL: DIQMTQSPSSLSASVGDRVTITCRASQPIVRNLRWYQQKPGKAPKLLIYSSSLLEPGVPSRFSGSGSGTDFTLTISSLQPEDFATYHCQQGYRWPVTFGQGTKVEIKR"
  ASSIGNED CATEGORY: "YES"
- BINDER: "ABT1-95-130 (other, VK dAb) VL: DIQMTQSPSSLSASVGDRVTITCRASQPIVRNLRWYQQKPGKAPKLLIYSSSYLEPGVPSRFSGSGSGTDFTLTISSLQPEDFATYYCQQGYLWPVTFGQGTKVEIKR"
  ASSIGNED CATEGORY: "NO"
- BINDER: "ABT1-95-123 (other, VK dAb) VL: DIQMTQSPSSLSASVGDRVTITCRASQPIVRNLRWYQQKPGKAPKLLIYSSSYLEPGVPSRFSGSGSGTDFTLTISSLQPEDFATYHCQQGYAWPVTFGQGTKVEIKR"
  ASSIGNED CATEGORY: "YES"
- BINDER: "ABT1-86 (other, VH dAb) VH: EVQLLESGGGLVQPGGSLRLSCAASGFTFDRYIMAWVRQAPGKGLEWVSSITPSGAATYYADSVKGRFTISRDNSKNTLYLQMNSLRAEDTAVYYCAEEPADRYSTWTFDYWGQGTLVTVSS"
  ASSIGNED CATEGORY: "NO"
- BINDER: "ABT1-144 (other, VK dAb) VL: DIQMTQSPSSLSASVGDRVTITCRASQRIKKYLAWYQQKPGKAPRLLIYRSSQLQSGVPSRFSGSGSGTDFTLTISSLQPEDFATYYCQQSFKRPVTFGQGTKVEIKR"
  ASSIGNED CATEGORY: "NO"
- BINDER: "ABT1-95-139 (other, VK dAb) VL: DIQMTQSPSSLSASVGDRVTITCRASQQIVRNLRWYQQKPGKAPKLLIYSSSYLEPGVPSRFSGSGSGTDFTLTISSLQPEDFATYHCQQGYRWPVTFGQGTKVEIKR"
  ASSIGNED CATEGORY: "YES"
- BINDER: "ABT1-141-16 (other, VK dAb) VL: DIQMTQSPSSLSASVGDRVAITCRASQWIQKQLAWYQQKPGKAPKLLIYSSSYLQSGVPSRFSGSGSGTDFTLTISSLQPEDFATYYCQHHLRVPFTFGQGTKVEIKR"
  ASSIGNED CATEGORY: "NO"
